Assay: Tmax in BALB/c mouse at 20 mg/kg, ip
Assay type: ADME, organism-based
Set-up: dose 20 mg/kg, route intraperitoneal
Settings: in vivo
reportedProperty: Tmax (min)
Number only, in min; omit the unit.

Query block: What does the data say about its Tmax? Entry: C#C[C@]1(CO)O[C@@H](n2cnc3c(N)nc(F)nc32)C[C@@H]1O [ISLATRAVIR]
Result block: 10
